Target: Legumain (Mus musculus)
Sequence (O89017 whole entry): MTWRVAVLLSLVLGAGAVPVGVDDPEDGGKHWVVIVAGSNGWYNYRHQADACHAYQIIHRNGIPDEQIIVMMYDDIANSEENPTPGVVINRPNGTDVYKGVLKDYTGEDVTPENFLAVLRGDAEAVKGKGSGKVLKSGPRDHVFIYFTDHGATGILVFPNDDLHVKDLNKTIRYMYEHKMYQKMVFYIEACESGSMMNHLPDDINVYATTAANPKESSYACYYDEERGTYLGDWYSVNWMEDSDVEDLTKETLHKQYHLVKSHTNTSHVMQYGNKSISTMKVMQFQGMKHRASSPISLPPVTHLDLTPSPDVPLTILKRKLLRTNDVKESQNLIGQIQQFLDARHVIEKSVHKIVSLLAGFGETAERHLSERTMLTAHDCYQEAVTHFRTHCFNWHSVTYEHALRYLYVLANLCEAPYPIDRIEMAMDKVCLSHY
Test: Inhibition of mouse recombinant legumain using Cbz-Ala-Ala-Asn-AMC as substrate measured every 30 secs for 2.5 hrs by fluorimetry
Rule: IC50 below 9 nM gives satisfied, anything at or above gives not satisfied.

molecule=CCOC(=O)/C=C/C(=O)N(CC(N)=O)NC(=O)[C@@H]1CCCN1C(C)=O class_label=satisfied
molecule=CCOC(=O)/C=C/C(=O)N(CC(N)=O)NC(=O)[C@@H]1CCCN1C(=O)[C@@H]1Cc2ccccc2CN1C(C)=O class_label="not satisfied"
molecule=CCOC(=O)/C=C/C(=O)N(CC(N)=O)NC(=O)[C@@H]1CCCN1C(=O)c1cccc(NC(C)=O)c1 class_label="not satisfied"
molecule=C#CC[C@H](NC(C)=O)C(=O)N1CCC[C@H]1C(=O)NN(CC(N)=O)C(=O)/C=C/C(=O)OCC class_label="not satisfied"
molecule="C#CC[C@H](NC(C)=O)C(=O)N1CCC[C@H]1C(=O)NN(CC(N)=O)C(=O)C1OC1C(=O)OCC (stereo partly drawn)" class_label=satisfied
molecule=CCOC(=O)/C=C/C(=O)N(CC(N)=O)NC(=O)[C@@H]1CCCN1C(=O)[C@H](CC)NC(C)=O class_label=satisfied
molecule=CCOC(=O)/C=C/C(=O)N(CC(N)=O)NC(=O)[C@@H]1CCCN1C(=O)C(NC(C)=O)=C(C)C class_label="not satisfied"
molecule="CCOC(=O)C1OC1C(=O)N(CC(N)=O)NC(=O)[C@@H]1CCCN1C(=O)C1(NC(C)=O)CC1 (stereo partly drawn)" class_label=satisfied
